System: NCI-H2141 (Small Cell Lung Carcinoma);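 further: after 72 h of two-drug dosing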
Experiment: Bliss excess, mean over the matrix (fraction); higher = more synergy
testReadout: Bliss excess
Format: numeric value only, no unit, no commentary.

Here are 4 compounds together with their reported answers.
compound	testReadout	resultValue
C=CCn1c(=O)c2cnc(Nc3ccc(N4CCN(C)CC4)cc3)nc2n1-c1cccc(C(C)(C)O)n1 [AZD1775] + C[C@@H]1COCCN1C2=NC(=NC(=C2)C3(CC3)[S@](=N)(=O)C)C4=C5C=CNC5=NC=C4 [AZD6738] (first compound max 1 µM, partner max 10 µM)	Bliss excess	0.0248
CN(CCO)CC[C@H](CSc1ccccc1)Nc1ccc(S(=O)(=O)NC(=O)c2ccc(N3CCC([C@@H](O)c4ccccc4-c4ccc(Cl)cc4)CC3)cc2)cc1S(=O)(=O)C(F)(F)F [AZD4320] + Cc1cc2ncnn2cc1Nc1ncc2c(n1)n(C1CCOCC1)c(=O)n2C [AZD7648] (first compound max 1 µM, 7x7, partner max 10 µM)	Bliss excess	0.0109
C[C@@H](c1ccc2nccn2c1)n1nnc2ncc(-c3cnn(C)c3)nc21 [Savolitinib] + Cc1c2c(nn1C)CSCc1cc(n(C)n1)CSc1cc(c3ccccc3c1)OCCCc1c(C(=O)O)n(C)c3c-2c(Cl)ccc13 [AZD5991] (first compound max 1 µM, 7x7, partner max 1 µM)	Bliss excess	-0.0107
Cc1c2c(nn1C)CSCc1cc(n(C)n1)CSc1cc(c3ccccc3c1)OCCCc1c(C(=O)O)n(C)c3c-2c(Cl)ccc13 [AZD5991] + C=CCn1c(=O)c2cnc(Nc3ccc(N4CCN(C)CC4)cc3)nc2n1-c1cccc(C(C)(C)O)n1 [AZD1775] (first compound max 1 µM, partner max 1 µM)	Bliss excess	-0.0145

Data request, read-out Bliss excess, for COc1nnc2ccc(N3CCC(c4ccc(OCCN5CCN(C)C(=O)[C@H]5C)cc4)CC3)nn12 [AZD5153] + CC1(C)CCC(CN2CCN(c3ccc(C(=O)NS(=O)(=O)c4ccc(NCC5CCOCC5)c([N+](=O)[O-])c4)c(Oc4cnc5[nH]ccc5c4)c3)CC2)=C(c2ccc(Cl)cc2)C1 [Venetoclax] (first compound max 1 µM, 7x7, partner max 1 µM)
0.0085
